tgt: T1, yedK N75A (Escherichia coli (gene from BL21 …, UniProt P76318 2-222, N75A))
T1 sequence: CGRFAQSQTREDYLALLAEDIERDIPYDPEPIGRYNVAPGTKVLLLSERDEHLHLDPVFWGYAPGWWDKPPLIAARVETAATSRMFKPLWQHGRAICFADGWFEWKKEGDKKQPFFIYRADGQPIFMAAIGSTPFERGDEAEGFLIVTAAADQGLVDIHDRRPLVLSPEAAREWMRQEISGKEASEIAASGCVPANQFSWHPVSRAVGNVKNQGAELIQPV
test_summary: ITC
measurement_type: Kd (µM)
Give a bare numeral; the unit µM is implied.

**Q:** I have this binder here, CGGTCGATTC (ssDNA) [ssDNA] , and I need its recorded Kd.
**A:** 37.9
